Reference source: patent US11739074B2

biological target: KRAS G12C (Homo sapiens, UniProt P01116+P62937, G12C); test: Ras-Raf disruption/FRET/MOA assay, KRAS G12C; type: biochemical; conditions: disruption of BRAF RBD binding, with Cyclophilin A; read-out: KRAS G12C FRET IC50
Sequence (P01116 1-169 isoform P01116-2 G12C limits assumed): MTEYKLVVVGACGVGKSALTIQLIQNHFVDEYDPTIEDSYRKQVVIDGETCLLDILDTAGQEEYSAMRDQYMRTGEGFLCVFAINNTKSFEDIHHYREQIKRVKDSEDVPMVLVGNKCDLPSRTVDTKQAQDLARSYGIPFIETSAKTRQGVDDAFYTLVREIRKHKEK
Sequence (P62937 whole entry): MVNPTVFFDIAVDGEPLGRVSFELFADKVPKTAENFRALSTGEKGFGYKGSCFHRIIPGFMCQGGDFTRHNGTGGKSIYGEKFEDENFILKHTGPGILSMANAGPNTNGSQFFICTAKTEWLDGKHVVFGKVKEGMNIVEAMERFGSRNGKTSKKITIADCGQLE
observation type: IC50

# input Requested field: IC50. Item: CCn1c(-c2cccnc2[C@H](C)OC)c2c3cc(ccc31)-c1cc(O)cc(c1)C[C@H](NC(=O)[C@H](C(C)C)N1CCC3(CCN(C(=O)[C@@H]4CN4)CC3)C1=O)C(=O)N1CCC[C@H](N1)C(=O)OCC(C)(C)C2 [Compound 195]
# output 10 to 100 nM

# input # repeat for CCn1c(-c2cccnc2[C@H](C)OC)c2c3cc(ccc31)-c1csc(n1)C[C@H](NC(=O)[C@H](C(C)C)N(C)C(=O)N1CC(N(C)C(=O)[C@H]3CN3)C1)C(=O)N1CCC[C@H](N1)C(=O)OCC(C)(C)C2 (atropisomer, axis not shown) [Compound 218]
# output 100 to 1000 nM

# input Follow-up entry: CCn1c(-c2cnccc2COC)c2c3cc(ccc31)-c1cc(O)cc(c1)C[C@H](NC(=O)[C@H](C(C)C)N(C)C(=O)CN(C)C(=O)[C@H]1CN1C(C)=O)C(=O)N1CCC[C@H](N1)C(=O)OCC(C)(C)C2 [Example 34]
# output 10 to 100 nM

# input Next entry: CCn1c(-c2cnccc2COC)c2c3cc(ccc31)-c1cc(O)cc(c1)C[C@H](NC(=O)[C@@H](CN(C)C(=O)[C@@H]1CN1)C(C)C)C(=O)N1CCC[C@H](N1)C(=O)OCC(C)(C)C2 [Compound 60]
# output > 10000 nM

# input Would you kindly repeat that for CCn1c(-c2cccnc2[C@H](C)OC)c2c3cc(ccc31)-c1csc(n1)C[C@H](NC(=O)[C@H](C(C)C)N(C)C(=O)N1C3CCC1CN(C(=O)[C@H]1CN1)C3)C(=O)N1CCC[C@H](N1)C(=O)OCC(C)(C)C2 [Compound 303] ?
# output 100 to 1000 nM

# input Would you mind doing CCn1c(-c2cccnc2[C@H](C)OC)c2c3cc(ccc31)-c1cc(O)cc(c1)C[C@H](NC(=O)[C@H](C(C)C)N1CC[C@@]3(CCN(C[C@H]4CN4)C3)C1=O)C(=O)N1CCC[C@H](N1)C(=O)OCC(C)(C)C2 [Compound 193] as well?
# output 10 to 100 nM

# input CCn1c(-c2cnccc2COC)c2c3cc(ccc31)-c1cc(O)cc(c1)C[C@H](NC(=O)[C@H](C(C)C)N(C)C(=O)[C@H]1CCN(C(=O)N3C[C@H]3C(=O)OC)C1)C(=O)N1CCC[C@H](N1)C(=O)OCC(C)(C)C2 [Compound 111] ?
# output 100 to 1000 nM

# input Can you check CCn1c(-c2cccnc2[C@H](C)OC)c2c3cc(ccc31)-c1cc(O)cc(c1)C[C@H](NC(=O)[C@H](C(C)C)N1CCCC3(CN(C(=O)[C@@H]4CN4)C3)C1=O)C(=O)N1CCC[C@H](N1)C(=O)OCC(C)(C)C2 [Compound 306] next?
# output < 10 nM

# input Could you do the same for CCn1c(-c2cnccc2COC)c2c3cc(ccc31)-c1cc(O)cc(c1)C[C@H](NC(=O)[C@H](C(C)C)N(C)C(=O)CN(C)C(=O)[C@@H]1[C@H](C)N1[S@@+]([O-])C(C)(C)C)C(=O)N1CCC[C@H](N1)C(=O)OCC(C)(C)C2 (stereo partly shown) [Compound 54] , please?
# output 10 to 100 nM

# input And what about the compound CCn1c(-c2cnccc2COC)c2c3cc(ccc31)-c1cc(O)cc(c1)C[C@H](NC(=O)[C@H](C(C)C)N(C)C(=O)[C@H]1CCN(C(=O)N3C[C@@H]3C(=O)OC)C1)C(=O)N1CCC[C@H](N1)C(=O)OCC(C)(C)C2 [Compound 94] ?
# output 10 to 100 nM
